target: Human plasma kallikrein (PK) (Homo sapiens); assay: Human plasma kallikrein (PK) enzymatic inhibition assay, substrate H-D-Pro-Phe-Arg-pNA; settings: corrected Ki from Ki,app; 2 nM PK, 0.05 M HEPES pH 7.5, Km 0.33 mM
Sequence (P03952 391-638 limits assumed): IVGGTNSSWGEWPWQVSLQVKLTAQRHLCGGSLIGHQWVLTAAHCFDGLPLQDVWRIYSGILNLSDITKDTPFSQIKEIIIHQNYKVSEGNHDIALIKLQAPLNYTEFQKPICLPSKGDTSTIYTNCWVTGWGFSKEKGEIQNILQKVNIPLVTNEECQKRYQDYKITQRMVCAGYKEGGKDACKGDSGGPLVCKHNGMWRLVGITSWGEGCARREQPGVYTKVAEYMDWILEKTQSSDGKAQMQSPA
Sequence (P03952 20-390 partner limits assumed): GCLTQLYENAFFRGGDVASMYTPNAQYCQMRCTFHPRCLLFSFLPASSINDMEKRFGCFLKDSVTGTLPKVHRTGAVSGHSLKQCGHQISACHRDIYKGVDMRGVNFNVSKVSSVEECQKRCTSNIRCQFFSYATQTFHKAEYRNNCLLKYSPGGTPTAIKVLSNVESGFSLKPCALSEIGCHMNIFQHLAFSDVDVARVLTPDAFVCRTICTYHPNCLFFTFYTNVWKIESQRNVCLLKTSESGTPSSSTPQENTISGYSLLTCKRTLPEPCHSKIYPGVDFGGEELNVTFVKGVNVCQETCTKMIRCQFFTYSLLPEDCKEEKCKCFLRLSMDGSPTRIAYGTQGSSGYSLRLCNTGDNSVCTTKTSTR
resultType: pKi
To interpret pKi, take it as minus log10 of a concentration measured in moles per litre.

Study these solved cases before continuing.
> print(dat)
                            smilesstructure  resulttype  readoutvalue
1  Cc1cc(C(=O)NCc2ccc(C(=N)N)cc2)c(C)n1-c1nccs1         pKi          7.17
2  Cc1cc(C(=O)NCc2ccc(C(=N)N)cc2)c(C)n1-c1ccc2c(c1)OCCO2         pKi          7.85
3  Cc1cc(C(=O)NCc2ccc(C(=N)N)cc2)c(C)n1-c1ccccn1         pKi          7.46
4  COc1ccc(-n2c(C)cc(C(=O)NCc3ccc(C(=N)N)cc3)c2C)cc1         pKi          7.77
5  Cc1cc(C(=O)NCc2ccc(C(=N)N)cc2)c(C)n1-c1cccnc1         pKi          7.34

Query block: Fill in reported pKi for this entry: `Cc1cc(C(=O)NCc2ccc(C(=N)N)cc2)c(C)n1-c1ccc(F)cc1`
Result block: 7.89

Query block: Provide measured pKi value, entry: `Cc1cc(C(=O)NCc2ccc(C(=N)N)cc2)c(C)n1-c1ccc(Cl)cc1`
Result block: 8.15
